Collected Kd values appear next to each entry.
target: T1, human OX40_Fc (R&D Systems) (human, UniProt P43489 29-216); experiment: BLI, hOX40-Fc on tip, Fab 200 nM, monovalent
T1 construct: Bought
T1 sequence (P43489 29-216): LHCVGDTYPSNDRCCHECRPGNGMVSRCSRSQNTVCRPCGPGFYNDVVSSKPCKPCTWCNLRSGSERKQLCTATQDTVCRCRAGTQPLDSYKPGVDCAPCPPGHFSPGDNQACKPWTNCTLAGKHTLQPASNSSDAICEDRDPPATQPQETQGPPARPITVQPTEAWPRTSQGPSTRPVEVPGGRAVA
MEASURED METRIC: Kd (nM)

BINDER	MEASURED RESULT
ADI-20112, Fab (Fab, V domains shown) VH: QVQLVESGGGVVQPGRSLRLSCAASGFTFSSYGMHWVRQAPGKGLEWVAVISYDGSNKYYADSVKGRFTISRDNSKNTLYLQMNSLRAEDTAVYYCARGRPWYSETGTSAFDIWGQGTMVTVSS VL: DIQMTQSPSSLSASVGDRVTITCQASQDISNYLNWYQQKPGKAPKLLIYDASNLETGVPSRFSGSGSGTDFTFTISSLQPEDIATYYCQQSDHYPTFGGGTKVEIKR	70.6
ADI-20066, Fab (Fab, V domains shown) VH: QLQLQESGPGLVKPSETLSLTCTVSGGSISSSSYYWGWIRQPPGKGLEWIGSIYYSGSTYYNPSLKSRVTISVDTSKNQFSLKLSSVTAADTAVYYCARDPGYSASPNWFDPWGQGTLVTVSS VL: EIVLTQSPGTLSLSPGERATLSCRASQSVSSSFLAWYQQKPGQAPRLLIYGASSRATGIPDRFSGSGSGTDFTLTISRLEPEDFAVYYCQQYDVFPITFGGGTKVEIKR	21.8
ADI-20113, Fab (Fab, V domains shown) VH: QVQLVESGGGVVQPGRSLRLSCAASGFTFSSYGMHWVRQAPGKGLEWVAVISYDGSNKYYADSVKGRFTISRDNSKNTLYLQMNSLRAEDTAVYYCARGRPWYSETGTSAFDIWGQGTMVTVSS VL: EIVMTQSPATLSVSPGERATLSCRASQSVSSNLAWYQQKPGQAPRLLIYSASTRATGIPARFSGSGSGTEFTLTISSLQSEDFAVYYCQQHNVYPPYTFGGGTKVEIKR	182
